Overview of recorded MIC Coagulase Negative Staphylococcus (GC 6257) for various compounds
# Tested on: Staphylococcus sp.
# ASSAY_SUMMARY: in vitro antibacterial evaluation, MIC by broth dilution
# Format: cell-based
# CONDITION_NOTES: strain GC 6257; broth dilution, 18 hours at 35° C.
MEASURE: MIC Coagulase Negative Staphylococcus (GC 6257)

COMPOUND | REPORTED_VALUE
CC(c1ccccc1)C1NC(=O)CNC(=O)C(CO)NC(=O)C(CC2CN(Cc3ccccc3)C(=NCc3ccccc3)N2C2OC(CO)C(O)C(O)C2O)NC(=O)C(CC2CN(Cc3ccccc3)C(=NCc3ccccc3)N2Cc2ccccc2)NC(=O)C(Cc2ccc(OC3OC(CO)C(OC4OC(CO)C(O)C(O)C4O)C(O)C3O)cc2)NC1=O (stereo not drawn) [Example 73] | >128 µg/mL
CC(c1ccccc1)C1NC(=O)CNC(=O)C(CO)NC(=O)C(C(O)C2CN(Cc3ccccc3)C(=NCc3ccccc3)N2C2OC(CO)C(O)C(O)C2O)NC(=O)C(C(O)C2CN(Cc3ccccc3)C(=NCc3ccccc3)N2Cc2ccccc2)NC(=O)C(Cc2ccc(OC3OC(CO)C(OC4OC5COC6(OC5C(O)C4O)C4CC5CC(C4)CC6C5)C(O)C3O)cc2)NC1=O (stereo not drawn) [Example 79] | 4 µg/mL
CC(c1ccccc1)C1NC(=O)CNC(=O)C(CO)NC(=O)C(C(O)C2CN(Cc3ccc4ccccc4c3)C(=N)N2C2OC(CO)C(O)C(O)C2O)NC(=O)C(C(O)C2CNC(=N)N2)NC(=O)C(Cc2ccc(OC3OC(CO)C(OC4OC(CO)C(O)C(O)C4O)C(O)C3O)cc2)NC1=O (stereo not drawn) [Example 67] | >128 µg/mL
